test method notes: Cytotoxicity against human normal skin fibroblast (D551) cells
Assay type: cell-based
measurement context: D551 normal skin fibroblast cells
measured parameter: CC50

>>> observed_measurement("O=C1N(CCCCCOc2ccc(-c3ccc([N+](=O)[O-])cc3)cc2)CCN1c1ccncc1")
"> 100 µM"
>>> observed_measurement("COc1ccc(-c2ccc(OCCCCCN3CCN(c4ccncc4)C3=O)cc2)cc1")
"> 100 µM"

Now for the compound whose CC50 we want.
-- ask Find the recorded CC50 belonging to "O=C1N(CCCCCOc2ccc(-c3ccc(Br)cc3)cc2)CCN1c1ccncc1" and report it.
-- reply > 100 µM
